The reported numbers originate from patent US12661410B2.

molecular target: RET(KD: 658-1114 G810R) (Homo sapiens, UniProt P07949, G810R); construct: 658-1114; expressed in transfected cells; host or cells: 293T.165 (293T cells, generated in-house); test: HiBiT-Degradation, RET G810R degradation assay (Nano-Glo HiBiT Lytic), 293T.165 cells; format: cell-based
Sequence (P07949 658-1114 G810R): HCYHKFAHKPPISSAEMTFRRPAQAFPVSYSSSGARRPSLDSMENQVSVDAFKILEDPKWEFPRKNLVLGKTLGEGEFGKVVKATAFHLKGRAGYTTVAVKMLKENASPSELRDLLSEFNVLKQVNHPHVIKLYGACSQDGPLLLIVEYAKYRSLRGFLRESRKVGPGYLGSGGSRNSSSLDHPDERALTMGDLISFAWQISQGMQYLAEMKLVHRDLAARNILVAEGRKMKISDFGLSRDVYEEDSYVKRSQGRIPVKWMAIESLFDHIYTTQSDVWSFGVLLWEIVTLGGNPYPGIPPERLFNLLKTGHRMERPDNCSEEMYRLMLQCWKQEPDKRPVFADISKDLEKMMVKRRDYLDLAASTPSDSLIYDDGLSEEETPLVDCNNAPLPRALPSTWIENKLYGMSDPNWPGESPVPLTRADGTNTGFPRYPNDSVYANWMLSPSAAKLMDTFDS
property-measured: 293T.165 RET(KD: 658-1114 G810R) 6.0 hours (IP) [nM]

>  <compound>
CCC1(C(=O)NC2CCC2)CCN(c2ccc(-c3nc(-c4cnn([C@H]5CC[C@H](N6CCN(c7c(F)cc(N[C@@H]8CCC(=O)NC8=O)cc7F)CC6)CC5)c4)cn4ncc(C#N)c34)cn2)CC1 (single isomer, unassigned)

>  <result>
++++ (<50 nM = ++++)

$$$$
>  <compound>
CCC1(c2ncccn2)CCN(c2ccc(-c3nc(-c4cnn(C5CCN(C(=O)CC6(O)CCN(c7ccc(NC8CCC(=O)NC8=O)cc7F)CC6)CC5)c4)cn4ncc(C#N)c34)cn2)CC1 (centres unmarked)

>  <result>
++++ (<50 nM = ++++)

$$$$

----------
molecular target: RET(KD: 658-1114 G810R) (Homo sapiens, UniProt P07949, G810R); construct: 658-1114; expressed in transfected cells; host or cells: 293T.165 (293T cells, generated in-house); assay: HiBiT-Degradation, RET G810R degradation assay (Nano-Glo HiBiT Lytic), 293T.165 cells; type: cell-based; conditions: 6.0 hours, half-maximal degradation concentration, read-out: 293T.165 RET(KD: 658-1114 G810R) 6.0 hours (DC50)

>  <compound>
CCC1(C(=O)NC(C)C)CCN(c2ccc(-c3nc(-c4cnn(C5CCN(CC6(O)CCN(c7ccc(NC8CCC(=O)NC8=O)cc7F)CC6)CC5)c4)cn4ncc(C#N)c34)cn2)CC1 (stereo not shown)

>  <DC50>
< 50 nM

$$$$
>  <compound>
CN(C)c1ccc(-c2cc(-c3cnn([C@H]4CC[C@@H](CCN5CCC(c6ccc(NC7CCC(=O)NC7=O)cc6)CC5)CC4)c3)cn3ncc(C#N)c23)cn1 (stereo partly shown)

>  <DC50>
< 100 nM

$$$$
>  <compound>
COc1ccc(CC2(C(=O)NC(C)C)CCN(c3ccc(-c4nc(-c5cnn([C@H]6CC[C@H](N7CCN(c8cc(OC)c(NC9CCC(=O)NC9=O)cc8F)CC7)CC6)c5)cn5ncc(C#N)c45)cn3)CC2)nc1 (stereo partly shown)

>  <DC50>
< 100 nM

$$$$
>  <compound>
N#Cc1cnn2cc(-c3ccc(N4CCN(C(=O)CC5(O)CCN(c6ccc(NC7CCC(=O)NC7=O)cc6F)CC5)CC4)cc3)nc(-c3ccc(N4CC5CC(C4)N5Cc4ccccc4)nc3)c12 (stereo not shown)

>  <DC50>
< 100 nM

$$$$
>  <compound>
N#Cc1cnn2cc(-c3cnn(C4CCN(C(=O)CC5(O)CCN(c6ccc(NC7CCC(=O)NC7=O)cc6F)CC5)CC4)c3)nc(-c3ccc(N4CCN(C(=O)c5cccnc5)CC4)nc3)c12 (stereo not shown)

>  <DC50>
< 100 nM

$$$$
>  <compound>
CC(C)NC(=O)C1(C(C)C)CCN(c2ccc(-c3cc(-c4cnn(C5CCN(C(=O)CN6CCC(c7ccc(NC8CCC(=O)NC8=O)cc7F)CC6)CC5)c4)cn4ncc(C#N)c34)cn2)CC1 (stereo not shown)

>  <DC50>
< 100 nM

$$$$
>  <compound>
CCC1(C(=O)NC(C)C)CCN(c2ccc(-c3cc(-c4cnn(C5CC6(C5)CN(C5CCN(c7ccc(NC8CCC(=O)NC8=O)cc7F)CC5)C6)c4)cn4ncc(C#N)c34)cn2)CC1 (stereo not shown)

>  <DC50>
< 50 nM

$$$$
>  <compound>
Cc1ccnc(C2CCN(c3ccc(-c4nc(-c5cnn(C6CCN(C(=O)CC7(O)CCN(c8ccc(NC9CCC(=O)NC9=O)cc8F)CC7)CC6)c5)cn5ncc(C#N)c45)cn3)CC2)n1 (stereo not shown)

>  <DC50>
< 50 nM

$$$$
>  <compound>
CCC1(C(=O)NC(C)C)CCN(c2ccc(-c3nc(-c4cnn(C5CCN(C(=O)CC6(OC)CCN(c7ccc(NC8CCC(=O)NC8=O)cc7F)CC6)CC5)c4)cn4ncc(C#N)c34)cn2)CC1 (stereo not shown)

>  <DC50>
< 100 nM

$$$$
>  <compound>
N#Cc1cnn2cc(-c3cnn(C4CCN(C(=O)CN5CCC(c6ccc(NC7CCC(=O)NC7=O)cc6F)CC5)CC4)c3)cc(-c3ccc(N4CC5CC(C4)N5Cc4ccccn4)nc3)c12 (stereo not shown)

>  <DC50>
< 50 nM

$$$$
>  <compound>
COc1cc(N2CCN([C@H]3CC[C@H](n4cc(-c5cn6ncc(C#N)c6c(-c6ccc(N7CC8CC(C7)N8Cc7ccccc7S(C)(=O)=O)nc6)n5)cn4)CC3)CC2)c(F)cc1NC1CCC(=O)NC1=O (stereo partly shown)

>  <DC50>
< 100 nM

$$$$
>  <compound>
CCC1(C(=O)NC2CCC2)CCN(c2ccc(-c3nc(-c4cnn([C@H]5CC[C@H](N6CCC(c7ccc(N[C@@H]8CCC(=O)NC8=O)cc7)CC6)CC5)c4)cn4ncc(C#N)c34)cn2)CC1 (single isomer, unassigned)

>  <DC50>
< 50 nM

$$$$
>  <compound>
COc1cc(N2CCN([C@H]3CC[C@H](n4cc(-c5cn6ncc(C#N)c6c(-c6ccc(N7C[C@@H]8[C@@H](CNC(=O)c9ncccc9Cl)[C@@H]8C7)nc6)n5)cn4)CC3)CC2)c(F)cc1NC1CCC(=O)NC1=O (stereo partly shown)

>  <DC50>
< 100 nM

$$$$
>  <compound>
N#Cc1cnn2cc(-c3ccc(N4CCN(C(=O)CN5CCC(c6ccc(NC7CCC(=O)NC7=O)cc6)CC5)CC4)cc3)cc(-c3ccc(N4C[C@H]5CC[C@@H](C4)O5)nc3)c12 (stereo partly shown)

>  <DC50>
< 100 nM

$$$$
>  <compound>
COc1ccnc(CN2C3CC2CN(c2ccc(-c4cc(-c5cnn(C6CCN(C(=O)CN7CCC(c8ccc(NC9CCC(=O)NC9=O)cc8F)CC7)CC6)c5)cn5ncc(C#N)c45)cn2)C3)c1 (stereo not shown)

>  <DC50>
< 100 nM

$$$$
>  <compound>
CCC1(C(=O)NC2CCC2)CCN(c2ccc(-c3nc(-c4cnn([C@H]5CC[C@H](N6CCN(c7c(F)cc(N[C@H]8CCC(=O)NC8=O)cc7F)CC6)CC5)c4)cn4ncc(C#N)c34)cn2)CC1 (single isomer, unassigned)

>  <DC50>
< 50 nM

$$$$
>  <compound>
CC(C)NC(=O)C1(C)CCN(c2ccc(-c3cc(-c4ccc(N5CCN(C(=O)CN6CCC(c7ccc(NC8CCC(=O)NC8=O)cc7F)CC6)CC5)cc4)cn4ncc(C#N)c34)cn2)CC1 (stereo not shown)

>  <DC50>
< 100 nM

$$$$
>  <compound>
N#Cc1cnn2cc(-c3cnn(C4CCN(C(=O)CN5CCC(c6ccc(NC7CCC(=O)NC7=O)cc6F)CC5)CC4)c3)cc(-c3ccc(N4CC5CCC(C4)N5Cc4ccccn4)nc3)c12 (stereo not shown)

>  <DC50>
< 100 nM

$$$$
>  <compound>
CCC1(C(=O)NC2CCC2)CCN(c2ccc(-c3nc(-c4cnn([C@H]5CC[C@H](N6CCC(c7ccc(NC8CCC(=O)NC8=O)cc7Cl)CC6)CC5)c4)cn4ncc(C#N)c34)cn2)CC1 (single isomer, unassigned)

>  <DC50>
< 50 nM

$$$$
